Biological target: Abl SH2 (Homo sapiens)
Construct: glutathione-S-transferase(GST)-Abl SH2 fusion protein
Sequence (P00519 127-217 limits assumed): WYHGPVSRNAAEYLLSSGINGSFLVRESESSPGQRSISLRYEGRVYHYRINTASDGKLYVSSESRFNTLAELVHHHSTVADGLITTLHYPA
Assay: Inhibition of 125I-phosphopeptide binding to immobilized Abl SH2
Conditions: read-out: IC50, Abl SH2 Binding; competitive 125I-phosphopeptide displacement, GST-Abl SH2 fusion protein, pH 7.5, room temperature, 20 minutes
Description: The binding affinities of compounds of the present invention to Abl SH2 was determined using a competitive radiolabeled phosphopeptide displacement assay. […] Binding was performed at room temperature for 20 minutes while continuously inverting the plate.
pIC50: −log10 of the molar value.
Observable: pIC50

Give the measured pIC50 of CN(CCCC1CCCCC1)C(=O)[C@H](CCC(=O)O)NC(=O)N(CC(=O)O)Cc1ccc(OP(=O)(O)O)cc1 . < 4.00
